- Assay notes: Cell Viability - LYMP2-010 (AID 981);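 further: cells exposed to compound for 24 hours at 37 °C; nearly all actives have a fitted effect of over 55% in size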
- Run conditions: LYMP2-010 lymphoblastoid cell viability, qHTS; series mostly up to 92.2 µM
- Text: NIH Chemical Genomics Center [NCGC] NIH Molecular Libraries Screening Centers Network [MLSCN] National Institutes of Environmental Health Sciences [NIEHS] National Toxicology Program [NTP] We have developed a 1536-well cell-based assay for quantitative high throughput screening (qHTS) against a number of cell lines to determine in vitro cytotoxicity of small molecules. […] 8. Detection; Luminescence; Viewlux plate reader […]
Records with an inconclusive call do not appear. Active and inactive are the calls of the source. The call rests on the fitted dose curve; in most records, active means well fitted cell-killing curve with a large enough effect; inconclusive means small, poorly fitted or top-dose-only effect; inactive means flat fitted curve, though single readings scatter.
Possible outcomes: active, inactive

| Compound | Class |
| --- | --- |
| COc1c2ccoc2cc2oc(=O)ccc12 | inactive |
| C=CC(=O)OCCOCCOCCOCCOC(=O)C=C | active |
| COc1ccc(/C=C/c2cc(OC)cc(=O)o2)cc1 | inactive |
| O=C(O)c1ccccc1 | inactive |
| Cc1ccccc1C | inactive |
| Cc1c(N=C=O)cccc1N=C=O | inactive |
| CCCCC(CC)CN (stereo not drawn) | inactive |
| O=C1c2ccccc2C(=O)C1c1ccc2ccccc2n1 | inactive |
| C/C=C\c1ccc(OC)cc1 | inactive |
| Cc1ccc([N+](=O)[O-])cc1N | inactive |
| NC1=NC(S)C2N=CN=C2N1 (stereo not drawn) | active |
| CCO | inactive |
| CCO[Si](CCCN)(OCC)OCC | inactive |
| COc1ccc2nc(N)sc2c1 | inactive |
| COC(=O)CCCCC(=O)OC | inactive |
| C=C(C)C1CC=C(C)C(O)C1 (stereo not drawn) | inactive |
| C[C@H](CCC(=O)O)[C@H]1CC[C@H]2[C@@H]3CC[C@@H]4C[C@H](O)CC[C@]4(C)[C@H]3CC[C@]12C | inactive |
| O=C(O)c1ccccc1C(c1ccc(O)cc1)c1ccc(O)cc1 | inactive |
| Clc1cc(Cl)c(Cl)c(Cl)c1Cl | inactive |
| O=NO | inactive |
| CCCN(CCC)C(=O)SCC | inactive |
| CCC(C)c1ccccc1O (stereo not drawn) | inactive |
| C=CCOC(=O)c1ccccc1C(=O)OCC=C | inactive |
| COC(=O)c1ccc(C=O)cc1 | inactive |
| C1OCOCO1 | inactive |
| CCCCOCCO | inactive |
| CC1=C2[C@H](/C=C(\C)C(=O)O)CC[C@@H](C)[C@H]2CC1 | inactive |
| O[C@@H]([C@H](O)[C@@H](O)CBr)[C@@H](O)CBr | inactive |
| CCC(O)OC(O)CC (stereo not drawn) | inactive |
| Cc1ccc([N+](=O)[O-])c(C)c1 | inactive |
| CC1(C)CC(N=C=O)CC(C)(CN=C=O)C1 (stereo not drawn) | inactive |
| c1ccccc1 | inactive |
| Nc1ccc(Cl)cc1Cl | inactive |
| CC(=O)OC/C=C(\C)CCC=C(C)C | inactive |
| c1ccc2c(c1)c1cccc3ccc4cccc2c4c31 | inactive |
| c1ccc2scnc2c1 | inactive |
| CCCCCCCCCCCC(=O)O | inactive |
| CCCCCCCCCCCCCC(=O)O | inactive |

====

- Experimental system: Rap guanine nucleotide exchange factor 3 (Homo sapiens)
- Assay notes: Counterscreen qHTS for agonist of cAMP-regulated guanine nucleotide exchange factor 3 (EPAC1) (AID 1645889); further: % of control where 0% means no effect; nearly all actives have a fitted effect of over 40% in size
- Run conditions: EPAC1 Rap1B-BODIPY-GDP exchange, fluorescence; series mostly up to 154 µM
Results filed as inconclusive are left out. The source made the active and inactive calls. Calls come from the whole dose curve; as a rule, active = well fitted activation curve with a large enough effect; inconclusive = small, poorly fitted or top-dose-only effect, or another doubt; inactive = no such curve, though single readings can be large or run the other way.
Property measured: activation

| Compound | Experimental system | Property measured | Test value |
| --- | --- | --- | --- |
| CCC(C)(C)c1ccc(OCC(=O)N(C)C)c(C(C)(C)CC)c1 | Rap guanine nucleotide exchange factor 3 (Homo sapiens) | activation | inactive |
| O=C(CSc1nnc(-c2cccs2)n1Cc1ccco1)Nc1ccc2c(c1)OCO2 | Rap guanine nucleotide exchange factor 3 (Homo sapiens) | activation | inactive |
| O=C(COc1ccccc1Br)Nc1ccccc1C(F)(F)F | Rap guanine nucleotide exchange factor 3 (Homo sapiens) | activation | inactive |
| CN(CCC#N)C(=O)COC(=O)c1c2c(nc3ccccc13)/C(=C\c1ccco1)CC2 | Rap guanine nucleotide exchange factor 3 (Homo sapiens) | activation | inactive |
| CCC/C=C/c1ccc(CN2C(CC(C)C)C(=O)N(Cc3cn(Cc4ccco4)nn3)CCS2(=O)=O)cc1 (stereo not given) | Rap guanine nucleotide exchange factor 3 (Homo sapiens) | activation | inactive |
| Cn1cccc1/C=C1\SC(=S)N(NC(=O)c2cccc(Cl)c2)C1=O | Rap guanine nucleotide exchange factor 3 (Homo sapiens) | activation | inactive |
| Cc1cc(C)c(S(=O)(=O)c2ccc(F)cc2)c(C)c1 | Rap guanine nucleotide exchange factor 3 (Homo sapiens) | activation | -0.628% [at 30.8 µM] (inactive) |
| O=C(CCn1cnc2onc(-c3ccc(F)cc3)c2c1=O)Nc1ccc(F)c(Cl)c1 | Rap guanine nucleotide exchange factor 3 (Homo sapiens) | activation | inactive |
| C#CCOc1nc(C)cc(C)c1S(=O)(=O)c1ccccc1C | Rap guanine nucleotide exchange factor 3 (Homo sapiens) | activation | -3.33% [at 30.8 µM] (inactive) |
| CCCCC(CC)C(=O)Oc1ccc(O)c(C(C)(C)C)c1 (stereo not given) | Rap guanine nucleotide exchange factor 3 (Homo sapiens) | activation | -16.7% [at 30.8 µM] (inactive) |

====

- Experimental system: Rap guanine nucleotide exchange factor 4 (Homo sapiens) (UniProt Q8WZA2)
- Sequence (Q8WZA2 whole entry, looked up): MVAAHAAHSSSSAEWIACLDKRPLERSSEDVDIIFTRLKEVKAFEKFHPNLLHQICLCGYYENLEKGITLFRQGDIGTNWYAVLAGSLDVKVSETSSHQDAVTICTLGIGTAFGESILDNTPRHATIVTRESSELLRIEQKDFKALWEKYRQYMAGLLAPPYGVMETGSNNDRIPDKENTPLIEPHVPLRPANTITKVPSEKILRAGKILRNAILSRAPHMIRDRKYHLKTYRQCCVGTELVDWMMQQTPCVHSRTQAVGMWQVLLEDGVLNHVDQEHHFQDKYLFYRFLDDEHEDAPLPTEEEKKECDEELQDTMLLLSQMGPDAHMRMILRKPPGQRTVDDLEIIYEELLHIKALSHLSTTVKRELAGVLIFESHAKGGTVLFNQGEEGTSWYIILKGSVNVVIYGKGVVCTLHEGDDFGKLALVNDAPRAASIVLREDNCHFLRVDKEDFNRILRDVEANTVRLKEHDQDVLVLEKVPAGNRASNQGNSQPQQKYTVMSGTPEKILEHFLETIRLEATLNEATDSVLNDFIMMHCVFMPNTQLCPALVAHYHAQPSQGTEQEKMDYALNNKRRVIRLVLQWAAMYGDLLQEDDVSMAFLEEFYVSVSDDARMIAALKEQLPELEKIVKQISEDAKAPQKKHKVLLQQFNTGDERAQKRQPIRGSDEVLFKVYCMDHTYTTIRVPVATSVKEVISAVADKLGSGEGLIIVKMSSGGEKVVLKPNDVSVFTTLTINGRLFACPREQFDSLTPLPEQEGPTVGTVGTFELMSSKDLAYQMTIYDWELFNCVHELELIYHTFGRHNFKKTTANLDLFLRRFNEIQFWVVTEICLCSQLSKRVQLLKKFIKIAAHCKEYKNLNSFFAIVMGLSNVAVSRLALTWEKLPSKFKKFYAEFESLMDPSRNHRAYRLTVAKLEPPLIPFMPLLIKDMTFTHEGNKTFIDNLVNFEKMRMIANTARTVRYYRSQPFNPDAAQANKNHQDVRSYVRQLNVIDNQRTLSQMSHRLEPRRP
- Assay notes: Confirmatory qHTS for antagonist of cAMP-regulated guanine nucleotide exchange factor 4 (EPAC2) (AID 1645885); further: nearly all actives have a fitted effect of over 25% in size
- Run conditions: EPAC2 Rap1B-BODIPY-GDP exchange fluorescence, biochemical; series mostly up to 12.7 µM
Records with an inconclusive call do not appear. Activity calls are given as the source filed them. The call rests on the fitted dose curve; in most records, active means well fitted inhibition curve with a large enough effect; inconclusive means small, poorly fitted or top-dose-only effect; inactive means no such curve, though single readings can be large or run the other way.
Possible outcomes: 1 (active), -1 (inactive)

| Compound | Class |
| --- | --- |
| CCOc1ccccc1CNC(=O)Cn1nc(C)c2c(C)n(-c3ccc(C)cc3)nc2c1=O | -1 |
| CCCN1C(=O)c2ccccc2NC1c1ccc(Cl)c(Cl)c1 (stereo unspecified) | -1 |
| Cc1cccc(C)c1-c1ccc(CN2C(CC(C)C)C(=O)N(Cc3cn(CCO)nn3)CCS2(=O)=O)cc1 (stereo unspecified) | -1 |
| COC(=O)c1c(SC)nc2ccccc2c1OCc1ccc(C)cc1 | -1 |
| CCOC(=O)c1c(C)[nH]c(C(=O)OCC(=O)Nc2sccc2C(N)=O)c1C | -1 |
| CCOc1ccc2nc(NC3=NC(c4ccc(OC)cc4)CC(=O)N3)nc(C)c2c1 (stereo unspecified) | -1 |
| O=c1oc2c3c(ccc2c2ccccc12)OCN(Cc1cccc(Cl)c1)C3 | -1 |
| O=CN(c1ccccc1)c1ccc2ccccc2c1 | -1 |
| COc1ccccc1CN(C)CC(=O)Nc1ccc(Cl)cc1F | -1 |
| CC(C)Cc1ccc(CN2CCCC(NC(=O)c3cnc4ccccn4c3=O)C2)cc1 (stereo unspecified) | -1 |
| C=CCNC(=O)c1oc2ccc(S(=O)(=O)N(CC)CC)cc2c1C | -1 |
| Cc1ccc(Cn2c(C)nc3c(c2=O)c2nc4ccccc4nc2n3Cc2ccco2)cc1 | -1 |
| COc1ccc(CC(=O)NCc2ccc3c(c2)CCN3C(=O)c2ccc(Cl)cc2)cc1OC | -1 |
| Cc1ccc2c(c1)NC(=O)C(CC(=O)N(C)Cc1ccccc1)O2 (stereo unspecified) | -1 |
| C#Cc1ccc([C@@H]2C=C(C(=O)OCC=C)O[C@H](OCc3ccc(CO)cc3)C2)cc1 | -1 |
| Cc1ccc(C(=O)Nc2ccccc2[N+](=O)[O-])cc1S(=O)(=O)N1CCOCC1 | -1 |
| COc1ccc([C@@H]2[C@@H]3C(=O)N(C(C)(C)C)C(=O)[C@@H]3[C@]3(Cc4ccccc4)C(=O)N(c4cccc(Br)c4)C(=O)N23)cc1 | -1 |
| COc1cc(/C=C2\CCn3c2nc2cc(C(=O)O)ccc2c3=O)ccc1OC(F)F | -1 |
| COc1ccccc1/C=C1\SC(=S)N(CCC(=O)Nc2ccc(C(=O)O)c(O)c2)C1=O | -1 |
| Cc1cc2nc3c(=O)n(C4CCCCC4)c(=O)[nH]c3nc2cc1N | -1 |
| Cc1ccc(F)c(S(=O)(=O)NC(=O)C2(C)CCN2C(=O)C2(c3ccc(Cl)cc3)CCC2)c1 (stereo unspecified) | -1 |
| C=CCN(CC=C)Cc1cc(=O)oc2cc(C)c(Cl)cc12 | -1 |
| N#Cc1c(NC(=O)C2CC=CCC2C(=O)O)sc2c1CCCCCC2 (stereo unspecified) | -1 |
| O=C(C1CCN(S(=O)(=O)N2CCOCC2)CC1)N1CCN(c2ccccc2)CC1 | -1 |
| CC(C)(C)NC(=O)NC(=O)CN1CCN(S(=O)(=O)c2ccc3c(c2)CCCC3)CC1 | -1 |
| COc1cc(/C=C2\SC(=S)N(CC(=O)O)C2=O)ccc1OS(=O)(=O)c1ccc(C)cc1 | -1 |
| CCn1c(O)c(/C=N/N=C/c2ccc(OC)cc2)c2cc(C3=NNC(=O)CC3)ccc21 | -1 |
| O=C(c1ccco1)N1CCN(c2cc(=O)n(C3CCCCC3)c(=O)[nH]2)CC1 | -1 |
| Cc1cc(-c2ccc(C(C)C)c(S(=O)(=O)N3CCC(C)CC3)c2)on1 | -1 |
| O=C(Nc1nc(-c2ccco2)c(-c2ccco2)s1)c1ccco1 | -1 |
| O=C(c1ccco1)N(Cc1cccs1)c1ccc(F)cc1 | -1 |
| CCC(C(=O)O)N1C(=O)/C(=C/C(C)=C/c2ccccc2)SC1=S (stereo unspecified) | 1 |
| COc1cccc(/C(O)=C/c2nc3ccc(C(=O)NCCc4ccc(Cl)cc4)cc3[nH]c2=O)c1 | -1 |
| O=C1COc2ccc(C(=O)COC(=O)c3ccc4ccccc4n3)cc2N1 | -1 |
| COc1cccc(C(=O)C(CCC#N)c2ccccc2)c1 (stereo unspecified) | -1 |
| Cc1ccccc1OCC(=O)Nc1ccc(C(=O)OCc2cc(=O)n3c(C)csc3n2)cc1 | -1 |
| CCOc1ccc(NC2c3ccccc3C(=O)N2Cc2ccco2)cc1 (stereo unspecified) | -1 |
| COc1cccc(/C(O)=C/c2nc3ccc(C(=O)NCCc4cccc(C)c4)cc3[nH]c2=O)c1 | -1 |
| COC(=O)c1ccc2nc(-c3ccccc3)c(Cc3ccccc3C(F)(F)F)n2c1 | 1 |
| Cc1nn(-c2ccccc2)c(C)c1-c1cc(C(=O)N/N=C/c2ccc(O)cc2)[nH]n1 | -1 |
| COc1ccc(C(CNC(=O)c2cccc(S(=O)(=O)Nc3ccc(C)cc3)c2)N2CCOCC2)cc1 (stereo unspecified) | -1 |
